Molecular target: T1, human CTLA-4-Fc (Chimerigen) (human, UniProt P16410 36-161; P01857 99-330 = IgG part, limits assumed)
T1 construct: extracellular domain;domain: Fc portion; Bought protein; also called hCTLA-4-Fc; huCTLA-4-Ig
T1 sequence (P16410 other isoform, or with tags, fused parts or gaps mutant limits assumed): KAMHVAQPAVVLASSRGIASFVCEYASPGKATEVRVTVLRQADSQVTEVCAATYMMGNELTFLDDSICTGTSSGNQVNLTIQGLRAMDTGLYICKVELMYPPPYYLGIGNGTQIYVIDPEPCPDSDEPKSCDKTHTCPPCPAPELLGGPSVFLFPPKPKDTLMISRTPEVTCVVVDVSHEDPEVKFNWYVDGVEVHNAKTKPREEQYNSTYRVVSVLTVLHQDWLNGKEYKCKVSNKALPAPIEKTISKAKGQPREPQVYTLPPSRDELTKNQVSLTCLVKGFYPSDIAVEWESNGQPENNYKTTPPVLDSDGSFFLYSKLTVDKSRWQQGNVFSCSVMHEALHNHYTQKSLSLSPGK
Experiment: SPR, Fc fusion captured via anti-human IgG Fc
Reported values of Kd for individual entries

binder: hNGAL mutein S67.2-F03 (designed binder) QDSTSDLIPAPPLSKVPLQQNFQDNQFHGKWYVVGLAGNRILRDDQHPMNMYATIYELKEDKSYNVTSVIFPHKKCEYTIATFVPGSQPGEFTLGNIKSYGDKTSYLVRVVSTNYNQHAMVFFKLVEDNAEFFAITIYGRTKELASELKENFIRFSKSLGLPENHIVFPVPIDQCIDGSAWSHPQF
Kd, nM: 47.1

binder: hNGAL mutein S94.7-Q13 (designed binder, also called CTLA-4-Q13) QDSTSDLIPAPPLSKVPLQQNFQDNQFHGKWYVVGLAGNRILRDDQHPMNMYATIYELKEDKSYNVTSVIFPHKKCEYTIATFVPGSQPGEFTLGNIKSYGDKTSYLVRVVSTNYNQHATVFFKLAEDNAEFFAITIYGRTKELASELKENFIRFSKSLGLPENHIVFPVPIDQCIDGSAWSHPQF
Kd, nM: 11.8

binder: hNGAL mutein S94.2-F05 (designed binder) QDSTSDLIPAPPLSKVPLQQNFQDNQFHGKWYVVGLAGNRILRDDQHPMNMYATIYELKEDKSYNVTSVIFPHKKCEYTIATFVPGSQPGEFTLGNIKSYGDKTSYLVRVVSTNYNQYAMVFFKLAEDNAEFFAVTIYGRTKELASELKENFIRFSKSLGLPENHIVFPVPIDQCIDGSAWSHPQF
Kd, nM: 18
